Would you kindly list MIC for each of these compounds?
tested on: Pseudomonas aeruginosa; test: Tested in vitro for antibacterial activity against Pseudomonas aeruginosa; assay type: functional

Sample answers from the record:
# Compound, MIC
records = [
    ("CC(C)CC(=O)C1OC12C(=O)CC(C)(C)CC2=O (stereo not drawn)", "50 µg/mL"),
    ("CC1=CC(=O)C2(OC2C(=O)CC(C)C)C(=O)N1 (stereo not drawn)", "> 100 µg/mL"),
    ("CC(=O)[C@@H]1O[C@@]12C(=O)C=C(C)NC2=O", "> 100 µg/mL"),
    ("CC1=CC(=O)[C@@]2(O[C@H]2C(=O)CC(C)C)C(=O)N1", "> 100 µg/mL"),
]

I would be grateful if you could provide MIC for each of the following entries.
1. CC1=CC(=O)[C@@]2(O[C@H]2C(=O)CC(C)C)C(=O)N1C
2. CC1=CC(=O)[C@@]2(O[C@@H]2C(=O)CC(C)C)C(=O)N1
3. CC(=O)[C@H]1O[C@@]12C(=O)C=C(C)NC2=O
4. CC1=CC(=O)[C@@]2(O[C@@H]2C(=O)CC(C)C)C(=O)N1C

1. > 100 µg/mL
2. > 100 µg/mL
3. 50 µg/mL
4. > 100 µg/mL

###

system: Aureobasidium pullulans; assay: Tested for antifungal activity against Pullaria pullulans; format: functional
Would you kindly list MIC for each of these molecules?
Answers are plain numbers, in µg/mL.

Sample answers from the record:
# Molecule, Reported value
rows = [
    ("CCCCCCCCCC(=O)[C@@H]1O[C@@]12C(=O)C=C(C)NC2=O", 0.2),
    ("CC(C)CC(=O)C1OC12C(=O)CC(C)(C)CC2=O (stereo unspecified)", 6.3),
]

Okay, next one:
Recall the reported MIC of "CCCCCCCCCC(=O)[C@H]1O[C@@]12C(=O)C=C(C)NC2=O" on Aureobasidium pullulans and write it down. 0.2

###

Would you kindly list MIC for each of these compounds?
system: Escherichia coli; test: Tested in vitro for antibacterial activity against Escherichia coli; type: functional

# Compound, Reported value
data = [
    ("CC(=O)[C@@H]1O[C@@]12C(=O)C=C(C)NC2=O", "> 100 µg/mL"),
]

I would be grateful if you could provide MIC for each of the following entries.
1. CC(=O)[C@H]1O[C@@]12C(=O)C=C(C)NC2=O
2. CC1=CC(=O)[C@@]2(O[C@H]2C(=O)CC(C)C)C(=O)N1
3. CC1=CC(=O)[C@@]2(O[C@H]2C(=O)CC(C)C)C(=O)N1C
4. CC1=CC(=O)[C@@]2(O[C@@H]2C(=O)CC(C)C)C(=O)N1C
5. CCCCCCCCCC(=O)[C@@H]1O[C@@]12C(=O)C=C(C)NC2=O
6. CC1=CC(=O)C2(OC2C(=O)CC(C)C)C(=O)N1 (stereo not given)
7. CC1=CC(=O)[C@@]2(O[C@@H]2C(=O)CC(C)C)C(=O)N1

1: 50 µg/mL; 2: 50 µg/mL; 3: > 100 µg/mL; 4: 100 µg/mL; 5: > 100 µg/mL; 6: 50 µg/mL; 7: 50 µg/mL

I would be grateful if you could provide MIC for each of the following entries.
1. CCCCCCCCCC(=O)[C@H]1O[C@@]12C(=O)C=C(C)NC2=O
2. CC(C)CC(=O)C1OC12C(=O)CC(C)(C)CC2=O (stereo not given)

> 100 µg/mL
> 100 µg/mL

###

system: Bordetella bronchiseptica; experiment: Tested in vitro for antibacterial activity against Bordetella bronchiseptica; format: functional
Measured metric: MIC (µg/mL)
One number for each entry, in µg/mL.

# Compound, MIC / µg/mL
rows = [
    ("CCCCCCCCCC(=O)[C@@H]1O[C@@]12C(=O)C=C(C)NC2=O", 0.8),
]

I would be grateful if you could provide MIC for each of the following entries.
1. CC(C)CC(=O)C1OC12C(=O)CC(C)(C)CC2=O (stereo not given)
2. CC1=CC(=O)[C@@]2(O[C@@H]2C(=O)CC(C)C)C(=O)N1

1. 50
2. 50

I would be grateful if you could provide MIC for each of the following entries.
1. CC1=CC(=O)C2(OC2C(=O)CC(C)C)C(=O)N1 (stereo not given)
2. CC1=CC(=O)[C@@]2(O[C@H]2C(=O)CC(C)C)C(=O)N1
3. CC1=CC(=O)[C@@]2(O[C@H]2C(=O)CC(C)C)C(=O)N1C
4. CC1=CC(=O)[C@@]2(O[C@@H]2C(=O)CC(C)C)C(=O)N1C
5. CCCCCCCCCC(=O)[C@H]1O[C@@]12C(=O)C=C(C)NC2=O

1. 33.9
2. 50
3. 100
4. 100
5. 3.1

###

Would you kindly list MIC for each of these compounds?
tested on: Aureobasidium pullulans; experiment: Tested for antifungal activity against Pullaria pullulans; assay type: functional

Sample answers from the record:
# Compound, Reported value
records = [
    ("CC(=O)[C@@H]1O[C@@]12C(=O)C=C(C)NC2=O", "> 100 µg/mL"),
    ("CC1=CC(=O)C2(OC2C(=O)CC(C)C)C(=O)N1 (stereo not drawn)", "> 100 µg/mL"),
]

Okay, next one:
// fetch MIC given entry "CC(=O)[C@H]1O[C@@]12C(=O)C=C(C)NC2=O" > 100 µg/mL
